# credit: a melting point compilation (Tetko et al.; mined from patent text by program, amines drawn as free bases though some values may be those of a salt)

The compounds listed here are annotated with their melting point.

Previously resolved entries follow.
CC1(C)CC(=O)C(C(=O)NS(=O)(=O)c2ccc(Cl)cc2)C(=O)C1; 103 to 106 °C
CC1CC(=O)c2c(OS(=O)(=O)c3cccs3)ccc(-c3nccs3)c2C1 (stereo not drawn); 111 to 113 °C

Query compound follows.
Field request: melting point | item: CC(=O)NCCC1CCc2ccn3nc(C)cc3c21 (stereo not drawn) 106 to 107 °C

----------
List of melting point values.

Worked set:
CCOC(=O)N1CCC(=C2c3cc(F)ccc3CCc3cccnc32)CC1; 112 to 114 °C
N#CCC1(O)CCc2ccccc2C12CCCC2 (configuration not stated); 165 to 166 °C
CCOc1cc(OCC2CCN(C)CC2)c(F)c(C(Nc2ccc(C(=N)N)cc2)C(=O)O)c1 (racemic); 232 °C
O=C(O)c1cccc(-c2ccccc2F)c1; 147 to 148 °C
COc1ccc(C2=NN(C3CCN(C(=O)NC(C)(C)C)CC3)C(=O)[C@H]3CC=CC[C@@H]23)c2c1OC(C)(C)C2 (relative stereo); 145 to 147 °C

Please report the recorded melting point for `CNc1ncc(CO)c(NC2CC2)n1` . 139 to 140 °C

Item: `CSC(=S)N/N=C/c1ccc(-c2ncn(-c3ccc(OC(F)(F)F)cc3)n2)cc1` 204 to 206 °C
